- Species on record: Rattus norvegicus
- Experiment description: Open TG-GATES - Regimen: Daily Repeat
- Type: toxicity, organism-based, Sprague-Dawley
- Parameters: regimen Daily Repeat, gender Male, age 6 weeks
- Experimental context: in vivo, po, 1000 mg/kg, […], tissue Plasma, route gavage, dose level High, time 28 day
Experimental readout: Cl (meq/L)
# value in meq/L; strip the unit string

See these solved cases before continuing.
Incoming: Reported Cl, compound COC1=CC(=O)C[C@@H](C)[C@]12Oc1c(Cl)c(OC)cc(OC)c1C2=O : ____
Outgoing: 103

Incoming: Reported Cl, compound CCOc1ccc(NC(=O)CC(C)O)cc1 (stereo not given) : ____
Outgoing: 104

Incoming: Reported Cl, compound COc1ccc2[nH]c([S+]([O-])Cc3ncc(C)c(OC)c3C)nc2c1 (stereo not given) : ____
Outgoing: 102.2

Incoming: Reported Cl, compound CCOC(=O)CCC(=O)O[C@H]1[C@H](O[C@@H]2[C@@H](C)[C@H](O[C@H]3C[C@@](C)(OC)[C@@H](O)[C@H](C)O3)[C@@H](C)C(=O)O[C@H](CC)[C@@](C)(O)[C@H](O)[C@@H](C)C(=O)[C@H](C)C[C@@]2(C)O)O[C@H](C)C[C@@H]1N(C)C [ERYTHROMYCIN ETHYLSUCCINATE] : ____
Outgoing: 108.8

Next:
Incoming: Reported Cl, compound NC(N)=Nc1nc(CSCCC(N)=NS(N)(=O)=O)cs1 : ____
Outgoing: 102.8

----------
Below, each of the compounds is paired with its reported Mono value.
- Species: Rattus norvegicus
- Experiment description: Open TG-GATES - Regimen: Single
- Type: toxicity, organism-based, Sprague-Dawley
- Set-up: regimen Single, gender Male, age 6 weeks
- Experimental context: in vivo, po, 0 mg/kg, 3 h, tissue Blood, route gavage, dose level Control
# value in %; strip the unit string

See these solved cases before continuing.
Incoming: Reported Mono, compound CC(C)OC(=O)C(C)(C)Oc1ccc(C(=O)c2ccc(Cl)cc2)cc1 [FENOFIBRATE] : ____
Outgoing: 4

Incoming: Reported Mono, compound CN1C(=O)CN=C(c2ccccc2)c2cc(Cl)ccc21 [DIAZEPAM] : ____
Outgoing: 8.6

Incoming: Reported Mono, compound CN(C)CCCN1c2ccccc2CCc2ccc(Cl)cc21 [CLOMIPRAMINE] : ____
Outgoing: 3.6

Incoming: Reported Mono, compound CCOc1ccc(NC(=O)CC(C)O)cc1 (stereo unspecified) [BUCETIN] : ____
Outgoing: 3.2

Incoming: Reported Mono, compound COC1=CC(=O)C[C@@H](C)[C@]12Oc1c(Cl)c(OC)cc(OC)c1C2=O [GRISEOFULVIN] : ____
Outgoing: 3

New cases:
Incoming: Reported Mono, compound COc1cc2c(c(OC)c1OC)-c1ccc(OC)c(=O)cc1[C@@H](NC(C)=O)CC2 [COLCHICINE] : ____
Outgoing: 7

Incoming: Reported Mono, compound Cc1ccc(C)c(OCCCC(C)(C)C(=O)O)c1 [GEMFIBROZIL] : ____
Outgoing: 2.8

Incoming: Reported Mono, compound COc1ccc2[nH]c([S+]([O-])Cc3ncc(C)c(OC)c3C)nc2c1 (stereo unspecified) [OMEPRAZOLE] : ____
Outgoing: 2.4

Incoming: Reported Mono, compound O=C(CCCN1CCC(O)(c2ccc(Cl)cc2)CC1)c1ccc(F)cc1 [HALOPERIDOL] : ____
Outgoing: 9.2

Incoming: Reported Mono, compound CN(C)CCCN1c2ccccc2CCc2ccccc21 [IMIPRAMINE] : ____
Outgoing: 2.8

Incoming: Reported Mono, compound CC1=C(/C=C/C(C)=C/C=C/C(C)=C/CO)C(C)(C)CCC1 [RETINOL] : ____
Outgoing: 2
